Below, each entry is listed alongside its reported amyloid nucleation score.
Experimental details: amyloid nucleation score (Sup35N fusion, yeast selection) (log enrichment); library NNK1; higher = more nucleation; inactive = no reads after selection;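 also: zero at mode of non-aggregating sequences after 7 days selection at 30°C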
Respond numerically, and do not add a unit to the figure.

{"Substance": "MIFPDQYYYSISPW", "amyloid nucleation score": -0.115}

query: Look up amyloid nucleation score of TICVYSG and report it.
result: 0.008

query: Look up amyloid nucleation score of DFFLIFWWDSFSAGVCQMNS and report it.
result: 0.356

query: Look up amyloid nucleation score of LSTKKTQTMRRVW and report it.
result: 0.404

query: Look up amyloid nucleation score of TIGASKFMICWTDSFHLQSQ and report it.
result: 3

query: Look up amyloid nucleation score of QASIYCIIRE and report it.
result: 0.68

* * *

Experimental details: amyloid nucleation score (Sup35N fusion, yeast selection) (log enrichment); library NNK3; higher = more nucleation; inactive = no reads after selection
Measure: amyloid nucleation score

In the examples that follow, each entry is paired with its recorded amyloid nucleation score.
{"Substance": "RFVAHG", "amyloid nucleation score": "inactive"}
{"Substance": "DIFVNAV", "amyloid nucleation score": "inactive"}
{"Substance": "PFHGSLDWSTTESAMT", "amyloid nucleation score": "inactive"}
{"Substance": "LERYRFKRNMSVIELHNKVM", "amyloid nucleation score": "inactive"}
{"Substance": "LHPCEYALM", "amyloid nucleation score": -1.4}

query: Look up amyloid nucleation score of LFKLSMQLCNT and report it.
result: 1.71

query: Look up amyloid nucleation score of ILQKQVTTRLSINSENLHL and report it.
result: 0.256

query: Look up amyloid nucleation score of SRCGSIGGMKG and report it.
result: inactive

query: Look up amyloid nucleation score of FFNRGKVAETGFIWSMVVV and report it.
result: inactive

query: Look up amyloid nucleation score of HLSLRNNNAPDYPSGNSFWE and report it.
result: inactive

query: Look up amyloid nucleation score of LILVCSSGRAIMKRAPCKFR and report it.
result: inactive

query: Look up amyloid nucleation score of CNCVRWWRSSSTTNG and report it.
result: inactive

query: Look up amyloid nucleation score of KYYWFMF and report it.
result: 1.78

query: Look up amyloid nucleation score of YSIIVVL and report it.
result: 1.39

query: Look up amyloid nucleation score of IKTGYSTHDPNHVDNTIRSR and report it.
result: inactive

query: Look up amyloid nucleation score of MLDCYWPFPNISIRIWTEWV and report it.
result: inactive

query: Look up amyloid nucleation score of GDLVLASAGYLVFGYLL and report it.
result: inactive

query: Look up amyloid nucleation score of GPPLNYEVT and report it.
result: inactive

query: Look up amyloid nucleation score of QMRVQMSCCFLGTCFSGRHW and report it.
result: 3.29

query: Look up amyloid nucleation score of QGNCLFVKVG and report it.
result: inactive

query: Look up amyloid nucleation score of SFFTWYTSFSKDDLWSGLTV and report it.
result: inactive

query: Look up amyloid nucleation score of FGQCNQVCCSEWDKD and report it.
result: inactive

query: Look up amyloid nucleation score of GALSYKSKSWRS and report it.
result: inactive

query: Look up amyloid nucleation score of LSVSIGVVGF and report it.
result: inactive

query: Look up amyloid nucleation score of LYVDCGLRIWRNMSAIVGCV and report it.
result: inactive

query: Look up amyloid nucleation score of AYLIRIGVIRLFLTLCCG and report it.
result: inactive

query: Look up amyloid nucleation score of KCNRFRG and report it.
result: inactive

* * *

Experimental details: amyloid nucleation score (Sup35N fusion, yeast selection) (log enrichment); library NNK2; higher = more nucleation; inactive = no reads after selection
Below, each entry is listed alongside its reported amyloid nucleation score.
Respond numerically, and do not add a unit to the figure.

In the examples that follow, each entry is paired with its recorded amyloid nucleation score.
{"Seq": "CIRAECVKLYL", "Value reported": 6.11}
{"Seq": "MGLYLWGFRTTSICGVLMDY", "Value reported": -1.66}
{"Seq": "CFIFKWFYYCLSVSTIDMSV", "Value reported": -2.48}
{"Seq": "TRLDVQLGHGIGSV", "Value reported": 0.092}
{"Seq": "TFWLIRTSHRGYRYEKVCTY", "Value reported": -0.017}

query: Look up amyloid nucleation score of CSIGLRCGNVMLPTEWVSNC and report it.
result: -0.763

query: Look up amyloid nucleation score of RRSQLRLILTFR and report it.
result: -0.223

query: Look up amyloid nucleation score of KFSTLCRISYITYLFFG and report it.
result: 6.34

query: Look up amyloid nucleation score of YMSVSSKGQRVCFTT and report it.
result: -0.488

query: Look up amyloid nucleation score of NGLSRLEVTNH and report it.
result: 0.052

* * *

Below, each entry is listed alongside its reported amyloid nucleation score.
Experimental details: amyloid nucleation score (Sup35N fusion, yeast selection) (log enrichment); library NNK2; higher = more nucleation; inactive = no reads after selection
Respond numerically, and do not add a unit to the figure.

In the examples that follow, each entry is paired with its recorded amyloid nucleation score.
{"Substance": "EDEWMHLVRVQFQGKDRKAA", "amyloid nucleation score": 0.92}
{"Substance": "SRVVGNRMYRSGLSRSSLLH", "amyloid nucleation score": -0.263}
{"Substance": "VFIGQQDHINP", "amyloid nucleation score": 0.363}

query: Look up amyloid nucleation score of IDLAFLLAVAVEPGWRTEV and report it.
result: -0.024

query: Look up amyloid nucleation score of RRVSAIYYRSLCCLAHYFRL and report it.
result: 0.219

query: Look up amyloid nucleation score of VGETLLSFCINWRVGYMFGN and report it.
result: -0.518

query: Look up amyloid nucleation score of RCRPFFPRNVFSRVENIYHA and report it.
result: -0.602

query: Look up amyloid nucleation score of MVSMFNGYAVLHCPLCIITR and report it.
result: 7.11

query: Look up amyloid nucleation score of QCGGIGFLILLNVCGDGLWI and report it.
result: 4.37

query: Look up amyloid nucleation score of VSACQSESVSNVFDR and report it.
result: -0.152

* * *

Experimental details: amyloid nucleation score (Sup35N fusion, yeast selection) (log enrichment); library NNK1; higher = more nucleation; inactive = no reads after selection
Measure: amyloid nucleation score

{"Seq": "GVATPPLRANSLEG", "Value reported": "inactive"}
{"Seq": "RSFAYSLSQGYFANMNAKVR", "Value reported": "inactive"}
{"Seq": "QTSLMMWLRR", "Value reported": "inactive"}

* * *

Experimental details: amyloid nucleation score (Sup35N fusion, yeast selection) (log enrichment); library NNK2; higher = more nucleation; inactive = no reads after selection
Would you mind labelling by amyloid nucleation score? At or over 0.6 is t, under is f.

{"Substance": "FAKLKIIGSARKYK", "Discrete label": "f"}
{"Substance": "GGIAACPGLEINWKFDLVQW", "Discrete label": "t"}
{"Substance": "MSIWCNSIDRTFIDNLRPVF", "Discrete label": "f"}
{"Substance": "WSWLSFYLSGMAFLVRYKSG", "Discrete label": "f"}
{"Substance": "NAICPIKVSGFGCLSKR", "Discrete label": "f"}
{"Substance": "SIQRTVS", "Discrete label": "f"}
{"Substance": "FLVVGGT", "Discrete label": "f"}
{"Substance": "QGCMVSRNRVQHVVGSGLRW", "Discrete label": "t"}
{"Substance": "NSSVCVRNRCGVWIDLKGII", "Discrete label": "t"}
{"Substance": "KVLATMGDIGVVLSVMLVPV", "Discrete label": "t"}

query: // inclusive: amyloid nucleation score at least 0.6? input: PCRVYHLCNYKLAWRKGGWL
result: t

query: // inclusive: amyloid nucleation score at least 0.6? input: SDSYAILLPC
result: f

query: // inclusive: amyloid nucleation score at least 0.6? input: HYHTSISYR
result: t

query: // inclusive: amyloid nucleation score at least 0.6? input: IVKFDVRVMCADLIGSHGQW
result: t

query: // inclusive: amyloid nucleation score at least 0.6? input: QGPHARRHPTFRHKLYVLVI
result: t

query: // inclusive: amyloid nucleation score at least 0.6? input: FELIFELLLKKCALI
result: f

query: // inclusive: amyloid nucleation score at least 0.6? input: SALERVKSWSQGNNSIGDHI
result: f

* * *

Experimental details: amyloid nucleation score (Sup35N fusion, yeast selection) (log enrichment); library NNK3; higher = more nucleation; inactive = no reads after selection
Measure: amyloid nucleation score

{"Substance": "TCLLRQCWNNVMS", "amyloid nucleation score": "inactive"}
{"Substance": "MMFARKFAIKSTKRIMVGRT", "amyloid nucleation score": "inactive"}
{"Substance": "RPTGYQVTYEMRRSGG", "amyloid nucleation score": "inactive"}
{"Substance": "DCARFILIT", "amyloid nucleation score": "inactive"}

query: Look up amyloid nucleation score of DGHMDR and report it.
result: inactive

query: Look up amyloid nucleation score of MFSYSNSHFSLRLMWRGLRF and report it.
result: inactive

query: Look up amyloid nucleation score of SCSIVDWSLMIVTYLCWLTN and report it.
result: inactive

// data source = the supplement of paper PMC12042874
